The reported measurements were obtained from PubChem BioAssay (NCATS).

# Test system: DIV30
# assay overview: qHTS profiling for inhibitors of Plasmodium falciparum proliferation (AID 504749); further: nearly all actives have a fitted effect of over 60% in size
# test context: P. falciparum in erythrocytes, SYBR Green DNA, 72 h; series mostly up to 12.8 µM
Results filed as inconclusive are left out. Calls of active or inactive are those of the source. The call rests on the fitted dose curve; in most records, active means well fitted inhibition curve with a large enough effect; inconclusive means small, poorly fitted or top-dose-only effect; inactive means flat fitted curve, though single readings scatter.
Use one of these outcomes when replying: YES (active), NO (inactive)

molecule: CC1(C)OC2CO[C@]3(COS(N)(=O)=O)OC(C)(C)OC3C2O1 (stereo partly specified)
class: NO
//
molecule: Cc1ncc([N+](=O)[O-])n1C[C@H](O)CCl
class: NO
//
molecule: Clc1ccc([C@H](Cn2ccnc2)OCc2c(Cl)cccc2Cl)c(Cl)c1
class: YES
//
molecule: C1CCN2C[C@@H]3C[C@@H](CN4CCCC[C@H]34)[C@H]2C1
class: NO
//
molecule: COc1ccc2cc(C(C)CO)ccc2c1 (stereo unspecified)
class: NO

Query: Check the results log: what was the call for O=C(Nc1ccccc1)OC[C@H](CN1CCCCC1)OC(=O)Nc1ccccc1 ?
Reply: NO

Query: Field: outcome | Entry: NS(=O)(=O)c1cc2c(cc1Cl)N[C@@H](CC1CCCC1)NS2(=O)=O
Reply: NO

Query: Would you mind telling me which call this test gave CN[C@H]1[C@@H](O)[C@@H](NC)[C@@H]2O[C@@]3(O)C(=O)C[C@@H](C)O[C@H]3O[C@H]2[C@H]1O ?
Reply: NO

Query: Each molecule tested received a call. Report the one for CO[C@]1(NC(=O)[C@H](C(=O)O)c2ccc(O)cc2)C(=O)N2C(C(=O)O)=C(CSc3nnnn3C)CO[C@H]21 .
Reply: NO

Query: # outcome recorded in this test, key = C=Cc1c(C)/c2[n-]/c1=C\c1[n-]c(c(CC)c1C)/C=c1\[n-]c3c(c1C)C(=O)C(C(=O)[O-])C=3c1[n-]c(c(C)c1CCC(=O)[O-])\C=2.[Cu].[Na+].[Na+] (stereo unspecified)
Reply: NO

Query: State the result this test recorded for CC[C@](C)(CN(C)C)OC(=O)c1ccccc1 .
Reply: NO
